molecular target: Heat shock protein HSP90 (Homo sapiens, UniProt P07900+P08238); assay: Inhibition of HSP90 ATPase activity (unknown origin); type: protein assay
Provide the recorded IC50 for the entries that follow.

Q. Note IC50 for the compound shown: C=CCN1CCN(C(=O)CSc2nc3ccccc3c(=O)n2-c2ccccc2)CC1
A. 1.58 µM

Q. Query IC50 for CC(=O)N1CCN(C(=O)CSc2nc3ccccc3c(=O)n2-c2ccccc2)CC1
A. 14.36 µM

Q. Name the recorded IC50 of the item O=C(CSc1nc2ccccc2c(=O)n1-c1ccccc1)N1CCOCC1 in your answer.
A. 3.21 µM

Q. Provide only the value of recorded IC50 for CCOc1ccccc1N1CCN(C(=S)SCCCSc2nc3ccccc3c(=O)n2-c2ccccc2)CC1
A. 3.41 µM
